# Assay Target: T1, huCDH19(1-43)::FLAG::hu(44-141)::ckCDH19(142-776) (construct K, Hu EC1) (human/chicken chimera)
# T1 construct: leader (1-43 of the entry) left out; also called huCDH19(44-141)::ckCDH19(142-776)
# Assay Summary: flow cytometry, transfected 293T cells, 2 mM CaCl2;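 note: binding of Alexa647-labelled anti-CDH19 antibodies to cells expressing human/chicken CDH19 chimeras, read as cell-bound fluorescence, with mock-transfected cells as controls, n.d. meaning not determined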
Measure Name: binding result

Binder	Measure Name	Result
hu anti-<huCDH19> 4A9 (Ab ID 13589) (antibody, human IgG1, lambda, V domains shown, huIgG1z / huLLC-C1; Bin 1) VH: QVQLQESGPGLVKPSETLSLTCTVSGGSISGYYWSWIRQPPGKGLEWFAYFSYSGSTNYNPSLKSRVTLSVDTSKNQFSLKLSSVTAADTAVYYCARNWAFHFDFWGQGTLVTVSS VL: QSVLTQPPSVSGAPGQRVTISCTGSSSNIGTGYAVHWYQQFPGTAPKLLIYGNNNRPSGVPDRFSGSKSGTSASLAITGLQAEDEADYYCQSYDSRLSGWVFGGGTKLTVLG	binding result	binds
